Target: human ribonucleotide reductase (hRR) (Homo sapiens, UniProt P23921)
Construct: Preparation of cell extract containing human ribonucleotide reductase (hRR); endogenous in cells; host or cells: HeLa cells (ATCC CCL 2.2); extract cleared with streptomycin sulphate, 50% ammonium sulphate cut, diafiltered
Sequence (P23921 1-792): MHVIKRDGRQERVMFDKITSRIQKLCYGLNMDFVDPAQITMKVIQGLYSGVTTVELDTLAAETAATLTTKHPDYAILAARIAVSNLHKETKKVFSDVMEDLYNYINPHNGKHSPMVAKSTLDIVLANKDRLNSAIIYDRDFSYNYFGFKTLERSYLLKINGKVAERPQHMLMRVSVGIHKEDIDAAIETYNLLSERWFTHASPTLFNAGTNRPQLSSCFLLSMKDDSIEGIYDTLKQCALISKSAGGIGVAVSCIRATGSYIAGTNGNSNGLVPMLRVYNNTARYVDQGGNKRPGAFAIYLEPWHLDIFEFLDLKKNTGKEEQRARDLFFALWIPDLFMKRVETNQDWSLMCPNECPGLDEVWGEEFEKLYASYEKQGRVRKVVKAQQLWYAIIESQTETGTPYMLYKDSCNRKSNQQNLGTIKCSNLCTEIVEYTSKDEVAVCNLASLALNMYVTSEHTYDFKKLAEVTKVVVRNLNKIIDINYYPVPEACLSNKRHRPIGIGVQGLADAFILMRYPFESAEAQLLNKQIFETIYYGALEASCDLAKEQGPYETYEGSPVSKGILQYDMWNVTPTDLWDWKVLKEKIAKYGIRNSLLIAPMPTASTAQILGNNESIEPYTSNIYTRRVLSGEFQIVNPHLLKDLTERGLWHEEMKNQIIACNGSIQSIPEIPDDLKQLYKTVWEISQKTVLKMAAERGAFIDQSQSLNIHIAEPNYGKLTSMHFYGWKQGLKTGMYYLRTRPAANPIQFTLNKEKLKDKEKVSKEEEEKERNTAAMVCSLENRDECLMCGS
Experiment: Inhibition of Human Ribonucleotide Reductase Assay
Format: biochemical
Settings: inhibition of human RR assay; list after the table; unit μM; read-out: IC50 (shown in parenthesis)
Non-standard residues stand in square brackets, D forms with d. Residues, ends and D or L forms follow the SMILES beside them. hPhe = N[C@@H](CCc1ccccc1)C(=O)O; NMeL = CN[C@@H](CC(C)C)C(=O)O; NMeV = CN[C@H](C(=O)O)C(C)C
The entries below are paired with their reported log10(IC50).
endpoint.label: log10(IC50) (log10 of the value in µM)

[[record]]
compound = "CC(=O)N[C@@H](Cc1ccccc1)C(=O)N[C@H](C(=O)N[C@@H](CC(C)C)C(=O)N[C@@H](CC(=O)O)C(=O)N[C@@H](C)C(=O)N[C@@H](CC(=O)O)C(=O)N[C@@H](CCc1ccccc1)C(=O)O)[C@@H](C)O [AcPhe-Thr-Leu-Asp-Ala-Asp-homoPhe-OH] (Ac-FTLDAD[hPhe]-OH)"
endpoint_label = "log10(IC50)"
result = 1.76

[[record]]
compound = "CC(=O)N[C@@H](Cc1ccccc1)C(=O)N[C@H](C(=O)N(C)[C@@H](CC(C)C)C(=O)N[C@@H](CC(=O)O)C(=O)N[C@@H](C)C(=O)N[C@@H](CC(=O)O)C(=O)N[C@@H](Cc1ccccc1)C(=O)O)[C@@H](C)O [AcPhe-Thr-N-Me-Leu-Asp-Ala-Asp-Phe-OH] (Ac-FT[NMeL]DADF-OH)"
endpoint_label = "log10(IC50)"
result = 1.36

[[record]]
compound = "CC(=O)N[C@@H](Cc1ccccc1)C(=O)N[C@H](C(=O)N[C@@H](CC(C)C)C(=O)N[C@@H](CC(=O)O)C(=O)N[C@H](C)C(=O)N[C@@H](CC(=O)O)C(=O)N[C@@H](Cc1ccccc1)C(=O)O)[C@@H](C)O [AcPhe-Thr-Leu-Asp-D-Ala-Asp-Phe-OH] (Ac-FTLD[dA]DF-OH)"
endpoint_label = "log10(IC50)"
result = 2.66

[[record]]
compound = "CC(=O)N[C@@H](Cc1ccccc1)C(=O)N[C@H](C(=O)N[C@@H](CC(C)C)C(=O)N[C@@H](CC(=O)O)C(=O)N[C@@H](C)C(=O)N[C@H](CC(=O)O)C(=O)N[C@@H](Cc1ccccc1)C(=O)O)[C@@H](C)O [AcPhe-Thr-Leu-Asp-Ala-D-Asp-Phe-OH] (Ac-FTLDA[dD]F-OH)"
endpoint_label = "log10(IC50)"
result = 2.45

[[record]]
compound = "CC(=O)N[C@@H](Cc1ccccc1)C(=O)N(C)[C@H](C(=O)N[C@@H](CC(C)C)C(=O)N[C@@H](CC(=O)O)C(=O)N[C@@H](C)C(=O)N[C@@H](CC(=O)O)C(=O)N[C@@H](Cc1ccccc1)C(=O)O)C(C)C [AcPhe-N-Me-Val-Leu-Asp-Ala-Asp-Phe-OH] (Ac-F[NMeV]LDADF-OH)"
endpoint_label = "log10(IC50)"
result = 1.68

